Cited source for all entries: PubChem BioAssay

Listed next: entries and their corresponding composite z-score.
target-or-system: Left-right determination factor 2 (Homo sapiens) (UniProt O00292)
Sequence (O00292 whole entry, looked up): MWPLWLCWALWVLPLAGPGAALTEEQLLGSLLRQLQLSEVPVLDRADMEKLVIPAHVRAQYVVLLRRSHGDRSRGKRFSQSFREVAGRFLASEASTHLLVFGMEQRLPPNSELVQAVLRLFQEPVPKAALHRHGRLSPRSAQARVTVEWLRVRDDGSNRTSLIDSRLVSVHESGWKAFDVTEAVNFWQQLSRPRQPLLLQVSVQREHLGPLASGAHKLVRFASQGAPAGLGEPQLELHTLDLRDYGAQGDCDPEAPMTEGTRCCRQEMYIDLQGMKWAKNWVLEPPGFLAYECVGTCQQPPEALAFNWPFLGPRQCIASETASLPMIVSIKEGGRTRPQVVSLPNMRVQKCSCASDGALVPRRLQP
test-protocol: LEFTY2 binders on small-molecule microarrays, primary screen, biochemical, small-molecule microarray, 635 nm fluorescence scan (AID 1110)
stated-conditions: LEFTY2 binding, higher = more signal
recorded-metric: composite z-score

[
  {
    "compound": "C=CCC(OC(C)=O)[C@@H]1[C@@H](N(Cc2cccc3ccccc23)C(=O)c2cccc3ccccc23)c2cc(OCCCO)ccc2N1C(=O)c1ccc2ccccc2n1 (some centres not stated)",
    "recorded-metric": "composite z-score",
    "observed-value": 0.146
  },
  {
    "compound": "CC(C)=CCCC(C)=CC(O)C1C=CC2C(=O)N(c3ccccc3)C(=O)C2N1Nc1ccccc1 (configuration not stated)",
    "recorded-metric": "composite z-score",
    "observed-value": 0.12
  },
  {
    "compound": "O=C(OCCF)C1=CCC(c2cccc(Cl)c2)O1 (configuration not stated)",
    "recorded-metric": "composite z-score",
    "observed-value": 0.15
  },
  {
    "compound": "COCCOC(=O)N1C(=O)[C@@]2(c3ccccc31)[C@H](C(=O)Nc1nc3ccccc3s1)[C@H]1C(=O)O[C@H](c3ccccc3)[C@H](c3ccccc3)N1[C@@H]2c1ccc(OCCO)cc1",
    "recorded-metric": "composite z-score",
    "observed-value": 0.382
  },
  {
    "compound": "O=C1C[C@]2(c3ccc([N+](=O)[O-])cc3)C(=O)N(CC(F)(F)F)c3cc(CO)ccc3[C@H]2N1CC12CC3CC(CC(C3)C1)C2",
    "recorded-metric": "composite z-score",
    "observed-value": -0.211
  },
  {
    "compound": "CC(C)c1ccc(NN2C(C(O)c3ccc(N(C)C)cc3)C=CC3C(=O)N(c4ccccc4)C(=O)C32)cc1 (configuration not stated)",
    "recorded-metric": "composite z-score",
    "observed-value": 0.0148
  },
  {
    "compound": "NC(=O)NCC#Cc1ccc2c(c1)[C@]1(C(=O)N2)[C@H](C(=O)NC[C@H](O)c2ccccc2)[C@H]2C(=O)O[C@H](c3ccccc3)[C@H](c3ccccc3)N2[C@@H]1c1ccc(O)cc1",
    "recorded-metric": "composite z-score",
    "observed-value": 0.691
  }
]
